Test system: P. aeruginosa MB9798 (efflux+, IMP-1 plasmid)
Details: efflux + (MB9798) strain; imipenem at 2 μg/mL; in the presence of a class A, C, D serine β-lactamase inhibitor closely related to relebactam
Where a name gives a salt, the structure may show the parent alone.
property: MB9798 MITC95 P. aeruginosa uM Efflux WT

molecule="NCC1(O)CCN(c2ccc(S(=O)(=O)N[C@@H]3CCNC3)c(S(N)(=O)=O)c2-c2nnn[nH]2)CC1 [Example 85]" measured_result="1.56 µM"
molecule="NC1CCN(c2ccc(S(=O)(=O)N[C@@H]3CCNC3)c(S(N)(=O)=O)c2-c2nnn[nH]2)CC1 [Example 73]" measured_result="1.56 µM"
molecule="COC(=O)C1CCN(c2ccc(S(=O)(=O)N[C@@H]3CCNC3)c(S(N)(=O)=O)c2-c2nn[nH]n2)CCN1.Cl (stereo partly shown) [Example 164]" measured_result="6.25 µM"
molecule="NC[C@@H](O)CNS(=O)(=O)c1ccc(N2CCC(F)(CN)CC2)c(-c2nn[nH]n2)c1S(N)(=O)=O [Example 3]" measured_result="0.78 µM"
molecule="NCCNS(=O)(=O)C1CCN(c2ccc(S(=O)(=O)N[C@@H]3CCNC3)c(S(N)(=O)=O)c2-c2nn[nH]n2)CC1 [Example 167]" measured_result="0.78 µM"
molecule="NC[C@@H](O)CNS(=O)(=O)c1ccc(N2CCC[C@@H](NCCO)C2)c(-c2nn[nH]n2)c1S(N)(=O)=O [Example 130, trifluoroacetate]" measured_result="12.50 µM"
molecule="NS(=O)(=O)c1c(S(=O)(=O)N[C@@H]2CCNC2)ccc(N2CC(N3CCCCC3)C2)c1-c1nnn[nH]1 [Example 112]" measured_result="50.00 µM"

---

pIC50: −log10 of the molar value.
Entries with reported pIC50 on IMP-1 (Serratia marcescens)
Sequence (P52699 whole entry, looked up, species assumed): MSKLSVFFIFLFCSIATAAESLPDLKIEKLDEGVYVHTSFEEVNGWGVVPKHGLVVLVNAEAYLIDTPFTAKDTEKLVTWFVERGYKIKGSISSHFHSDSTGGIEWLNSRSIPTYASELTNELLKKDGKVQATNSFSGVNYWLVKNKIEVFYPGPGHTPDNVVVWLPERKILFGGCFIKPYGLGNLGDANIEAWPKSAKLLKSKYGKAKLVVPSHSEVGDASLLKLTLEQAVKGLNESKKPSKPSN
property: pIC50

molecule=C[N+](C)(C)CCCCNc1ccc(S(=O)(=O)N[C@@H]2CCNC2)c(S(N)(=O)=O)c1-c1nnn[nH]1 target_entity="IMP-1 (Serratia marcescens)" measured_result=8.03
molecule=NC[C@@H](O)CNS(=O)(=O)c1ccc(N2CCC3(CC2)CNC(N)=N3)c(-c2nn[nH]n2)c1S(N)(=O)=O target_entity="IMP-1 (Serratia marcescens)" measured_result=8.13
molecule="NC[C@@H](O)CNS(=O)(=O)c1ccc(N2CCC(C(N)CO)CC2)c(-c2nn[nH]n2)c1S(N)(=O)=O (single isomer, unassigned) [Example 181]" target_entity="IMP-1 (Serratia marcescens)" measured_result=8.24
molecule=CN1CCOC2(C1)CN(c1ccc(S(=O)(=O)N[C@@H]3CCNC3)c(S(N)(=O)=O)c1-c1nnn[nH]1)C2 target_entity="IMP-1 (Serratia marcescens)" measured_result=8.22
molecule=NC[C@@H](O)CNS(=O)(=O)c1ccc(N[C@H]2CCC[C@H]2N)c(-c2nn[nH]n2)c1S(N)(=O)=O target_entity="IMP-1 (Serratia marcescens)" measured_result=7.00
molecule=NC[C@@H](O)CNS(=O)(=O)c1ccc(N2CC[C@H](CN)[C@@H](O)C2)c(-c2nn[nH]n2)c1S(N)(=O)=O target_entity="IMP-1 (Serratia marcescens)" measured_result=7.54
molecule=NS(=O)(=O)c1c(S(=O)(=O)N[C@@H]2CCNC2)ccc(N2CCC(C(F)F)CC2)c1-c1nnn[nH]1 target_entity="IMP-1 (Serratia marcescens)" measured_result=9.11

---

System: Serratia marcescens expressing IMP-1 (CL5741)
Type: cell-based
Settings: with imipenem 1 μg/ml; 95% inhibition of bacterial growth
property: CL5741 S. marcescens MITC95 IMP (µM)

molecule=NS(=O)(=O)c1c(S(=O)(=O)N[C@@H]2CCNC2)ccc(N2CCN(C(=O)CO)CC2)c1-c1nnn[nH]1 units_symbol=µM measured_result=3.13
molecule=C[C@@H](CN)NS(=O)(=O)c1ccc(N2CCC(O)(CN)CC2)c(-c2nn[nH]n2)c1S(N)(=O)=O units_symbol=µM measured_result=0.78
molecule="NS(=O)(=O)c1c(S(=O)(=O)C2CNC2)ccc(N2CCCC(CO)C2)c1-c1nnn[nH]1 (stereo not shown)" units_symbol=µM measured_result=3.13
molecule="NCC(O)C1CCN(c2ccc(S(=O)(=O)NC[C@H](O)CN)c(S(N)(=O)=O)c2-c2nn[nH]n2)CC1 (stereo partly shown)" units_symbol=µM measured_result=0.78

---

Here we list molecules with their recorded pIC50 when tested on UniProt P52699.
pIC50: −log10 of the molar value.
property: pIC50

molecule="NCCNS(=O)(=O)C1CCN(c2ccc(S(=O)(=O)NC[C@H](O)CN)c(S(N)(=O)=O)c2-c2nn[nH]n2)CC1 [Example 131]" target_entity="UniProt P52699" property=pIC50 measured_result=9.06
molecule=NC[C@@H](O)CNS(=O)(=O)c1ccc(N2CCC(CO)CC2)c(-c2nnn[nH]2)c1S(N)(=O)=O target_entity="UniProt P52699" property=pIC50 measured_result=9.33
molecule="NC1CCCCN(c2ccc(S(=O)(=O)C3CNC3)c(S(N)(=O)=O)c2-c2nnn[nH]2)C1 (stereo not drawn)" target_entity="UniProt P52699" property=pIC50 measured_result=6.86
molecule="NCC1CCN(c2ccc(S(=O)(=O)N[C@@H]3CCNC3)c(S(N)(=O)=O)c2-c2nn[nH]n2)C(=O)C1 (stereo partly drawn)" target_entity="UniProt P52699" property=pIC50 measured_result=6.98
molecule=NS(=O)(=O)c1c(S(=O)(=O)C2CNC2)ccc(N2CCC(CCO)CC2)c1-c1nnn[nH]1 target_entity="UniProt P52699" property=pIC50 measured_result=9.35
molecule=NC[C@@H](O)CNS(=O)(=O)c1ccc(N2CC[C@H](N)[C@H](F)C2)c(-c2nn[nH]n2)c1S(N)(=O)=O target_entity="UniProt P52699" property=pIC50 measured_result=8.37
molecule="NS(=O)(=O)c1c(S(=O)(=O)N[C@@H]2CCNC2)ccc(N2CCOC(CO)C2)c1-c1nnn[nH]1 (stereo partly drawn)" target_entity="UniProt P52699" property=pIC50 measured_result=8.46
molecule="NCC1CCN(c2ccc(S(=O)(=O)N[C@@H]3CCNC3)c(S(N)(=O)=O)c2-c2nn[nH]n2)CCN1 (stereo partly drawn)" target_entity="UniProt P52699" property=pIC50 measured_result=7.31
molecule=NCCOCC1CCN(c2ccc(S(=O)(=O)NC[C@H](O)CN)c(S(N)(=O)=O)c2-c2nn[nH]n2)CC1 target_entity="UniProt P52699" property=pIC50 measured_result=8.74
molecule=NCC1CCN(c2ccc(S(=O)(=O)N[C@@H]3CCNC3)c(S(N)(=O)=O)c2-c2nnn[nH]2)CC1 target_entity="UniProt P52699" property=pIC50 measured_result=8.74
molecule=NS(=O)(=O)c1c(S(=O)(=O)N[C@@H]2CCNC2)ccc(N2CC3(CCNCC3)C2)c1-c1nnn[nH]1 target_entity="UniProt P52699" property=pIC50 measured_result=7.48
molecule=N[C@H]1CCCN(c2ccc(S(=O)(=O)C3CNC3)c(S(N)(=O)=O)c2-c2nnn[nH]2)C1 target_entity="UniProt P52699" property=pIC50 measured_result=6.64
molecule=N.NC[C@@H](O)CNS(=O)(=O)c1ccc(N2CCN(CC(=O)O)CC2)c(-c2nnn[nH]2)c1S(N)(=O)=O target_entity="UniProt P52699" property=pIC50 measured_result=8.30
molecule=NS(=O)(=O)c1c(S(=O)(=O)N[C@@H]2CCNC2)ccc(N2CCCNC2=O)c1-c1nn[nH]n1 target_entity="UniProt P52699" property=pIC50 measured_result=8.14
molecule=NS(=O)(=O)c1c(S(=O)(=O)N[C@@H]2CCNC2)ccc(N2CCCC(=O)C2=O)c1-c1nn[nH]n1 target_entity="UniProt P52699" property=pIC50 measured_result=8.17

---

Overview of reported CL5741 S. marcescens MITC95 IMP across a group of compounds:
Tested on: Serratia marcescens expressing IMP-1 (CL5741)
Assay type: cell-based
Details: with imipenem 1 μg/ml; 95% inhibition of bacterial growth
property: CL5741 S. marcescens MITC95 IMP (µM)

compound="N[C@H]1CCN(c2ccc(S(=O)(=O)N[C@@H]3CCNC3)c(S(N)(=O)=O)c2-c2nn[nH]n2)C[C@H]1F [Example 199]" measured_result=0.10
compound="C[C@H](CN)NS(=O)(=O)c1ccc(N2CC[C@@H](CN)[C@@H](F)C2)c(-c2nn[nH]n2)c1S(N)(=O)=O (racemic) [Example 8]" measured_result=0.39
compound="NC[C@@H](O)CNS(=O)(=O)c1ccc(N[C@H]2CCC[C@H]2N)c(-c2nn[nH]n2)c1S(N)(=O)=O [Example 178]" measured_result=6.25
compound="NC[C@@H](O)CNS(=O)(=O)c1ccc(N2CC[C@H](CN)[C@@H](F)C2)c(-c2nn[nH]n2)c1S(N)(=O)=O (stereo in doubt) [Example 13]" measured_result=0.78
compound="NC[C@@H](O)CNS(=O)(=O)c1ccc(N2CCC3(CC2)CC3N)c(-c2nn[nH]n2)c1S(N)(=O)=O (some centres unmarked) [Example 12]" measured_result=1.56
compound="NCCC1CCN(c2ccc(S(=O)(=O)NC[C@H](O)CN)c(S(N)(=O)=O)c2-c2nn[nH]n2)CC1 [Example 24]" measured_result=3.13
compound="NS(=O)(=O)c1c(S(=O)(=O)N[C@@H]2CCNC2)ccc(N2CCNCC2)c1-c1nnn[nH]1 [Example 79]" measured_result=0.78
compound="NCCNS(=O)(=O)C1CCN(c2ccc(S(=O)(=O)N[C@@H]3CCNC3)c(S(N)(=O)=O)c2-c2nn[nH]n2)CC1 [Example 167]" measured_result=1.17
compound="NCC1CCN(c2ccc(S(=O)(=O)N[C@H](CN)CO)c(S(N)(=O)=O)c2-c2nn[nH]n2)CC1 [Example 186]" measured_result=1.56
compound="NC[C@@H](O)CNS(=O)(=O)c1ccc(N2CCC(c3ncc[nH]3)CC2)c(-c2nn[nH]n2)c1S(N)(=O)=O [Example 201]" measured_result=0.78
compound="NC[C@@H](O)CNS(=O)(=O)c1ccc(N2CC[C@@H](N)C2)c(-c2nn[nH]n2)c1S(N)(=O)=O [Example 125]" measured_result=3.13
compound="CC(=O)N[C@H]1CCN(c2ccc(S(=O)(=O)N[C@@H]3CCNC3)c(S(N)(=O)=O)c2-c2nnn[nH]2)C1 [Example 83]" measured_result=3.13
compound="NC[C@@H](O)CNS(=O)(=O)c1ccc(N2CCC(F)(CN)CC2)c(-c2nn[nH]n2)c1S(N)(=O)=O [Example 3]" measured_result=1.56
compound="NS(=O)(=O)c1c(S(=O)(=O)N[C@@H]2CCNC2)ccc(NCC2CCNCC2)c1-c1nn[nH]n1 [Example 183]" measured_result=1.56
